Assay: Particle size and polydispersity by DLS of RSV-F replicon LNPs
Format: physicochemical
Settings: RSV-F replicon LNP prepared for 2nd IM
Metric: PDI
Numbers only.

Consider the following illustrative entries.
CCCCC/C=C\C/C=C\CCCCCCCC(=O)OCC(COC(=O)CCCCCCC/C=C\C/C=C\CCCCC)COC(=O)CCC(CCCCCCCCCCCC)OC(=O)OCCCN(C)C (stereo not shown) ... 0.123
CCCCCCCCCCCCC(CCOC(=O)CCCCC(COC(=O)CCCCCCC)COC(=O)CCCCCCC)OC(=O)OCCCN(CC)CC (stereo not shown) ... 0.045
CCCCCCCCCCCCC(CCCOC(=O)CCCCC(COC(=O)CCCCCCC)COC(=O)CCCCCCC)OC(=O)C1(C)CCN(C)CC1 (stereo not shown) ... 0.07

Could you now consider this next compound?
Could you share which PDI value was measured for CCCCC/C=C\C/C=C\CCCCCCCCC(CCCOC(=O)CCC(=O)OC(CCCCCCCC)CCCCCCCC)OC(=O)OCCCN(C)C (stereo not shown) ?
0.075

###

Exercise: state measured % encapsulation mRNA Leptin for each of the compounds provided.
Assay: Percent encapsulation of mRNA in lipid nanoparticles (Quant-iT Ribogreen)
Format: physicochemical
Conditions: Table 2; leptin mRNA in LNP with the cationic lipid
In your response, the unit should come after the numeric value.

Would you please look over these solved cases?
CCCCCCCCCCCCC(CCOC(=O)CCCCC(OCCCCCCCC)OCCCCCCCC)OC(=O)OCCCN1CCCCC1 (stereo not shown) ... 94.5%
CCCCCCCCCCCCC(CCCC(=O)OCCCC(OCCCCCCCC)OCCCCCCCC)OC(=O)OCCCN(CC)CC (stereo not shown) ... 96.8%
CCCCCCCCCCCCC(CCCOC(=O)CCCCC(COC(=O)CCCCCCC)COC(=O)CCCCCCC)OC(=O)C1(C)CCN(C)CC1 (stereo not shown) ... 96.4%

I have 4 compounds here; please give me % encapsulation mRNA Leptin for each one.
1. CCCCCCCCCCCCC(CCOC(=O)CCC(OCC(CCC)CCC)OCC(CCC)CCC)OC(=O)OCCCN(C)CC (stereo not shown)
2. CCCCCCCCCCCCC(CCOC(=O)CCCCCCC(COC(=O)CCCCCCC)COC(=O)CCCCCCC)OC(=O)OCCCN(CC)CC (stereo not shown)
3. CCCCCCCCCCCCC(CCOC(=O)CCCCC(COC(=O)CCCCCCC)COC(=O)CCCCCCC)OC(=O)OCCCN(CC)CC (stereo not shown)
4. CCCCCCCCCC(=O)OCCC(CC(CCCCCCCC)CCCCCCCC)OC(=O)OCCCN(C)C (stereo not shown)

1. 99.4%
2. 96.6%
3. 97.1%
4. 98.3%

###

Experiment: Entrapment and RNA concentration of RSV-F replicon liposomes (Quant-iT RiboGreen)
Type: physicochemical
Conditions: RSV-F replicon LNP prepared for 2nd IM
Protocol: RNA was encapsulated in liposomes made essentially by the method of Geall et al. (2012) PNAS vol. […] The percentage of encapsulated RNA and RNA concentration were determined by Quant-iT RiboGreen RNA reagent kit (Invitrogen), following manufacturer's instructions. […] The fluorescence (Ex 485 nm, Em 528 nm) was read on a microplate reader. […] % entrapment (% E), Concentration of RNA (Conc), particle size measured by DLS, and polydispersity reported by DLS of LNPs prepared with different cationic lipids
For each of the compounds below, state its % E (% entrapment).
Give bare numbers, in %.

Consider the following illustrative entries.
CCCCC/C=C\C/C=C\CCCCCCCCC(CCCOC(=O)CCC(=O)OC(CCCCCCCC)CCCCCCCC)OC(=O)OCCCN(C)C (centres unmarked) [Example 58] ... 87.03
CCCCCCCCCCCCC(CCCOC(=O)CCCCC(COC(=O)CCCCCCC)COC(=O)CCCCCCC)OC(=O)C1(C)CCN(C)CC1 (centres unmarked) [Example 131] ... 80.31
CCCCC/C=C\C/C=C\CCCCCCCC(=O)OCC(COC(=O)CCCCCCC/C=C\C/C=C\CCCCC)OC(=O)C(CCCCCCCCCCCC)OC(=O)OCCCN(C)C (centres unmarked) [Example 98] ... 76.36
CCCCCCCCCCCCC(CCOC(=O)CCCCC(COC(=O)CCCCCCC)COC(=O)CCCCCCC)OC(=O)OCCCN(CC)CC (centres unmarked) [Example 1] ... 87.13

The record that follows has no % E (% entrapment) shown yet.
May I ask what % E (% entrapment) has been recorded for CCCCCCCCCC(=O)OCCC(CC(CCCCCCCC)CCCCCCCC)OC(=O)OCCCN(C)C (centres unmarked) [Example 70] ?
94.24

###

Assay: siRNA encapsulation in lipid nanoparticles (SYBR Gold)
Assay type: physicochemical
Details: Table 2; FVII siRNA in LNP with the cationic lipid
Method: The lipid nanoparticles (LNPs) were formed by mixing equal volumes of lipids dissolved in alcohol with siRNA dissolved in a citrate buffer by an impinging jet process. […] SYBR Gold flourescence reagent is used for the determination of siRNA encapsulation in the DLP's. […] DLP's samples with and without triton X-100 were excited at 485 nm and flourescence emission is measured at 530 nm. […]
Metric: % encapsulation siRNA FVII

CCCCCCCCCCCCC(CCOC(=O)CCC(OCC(CC)CCCC)OCC(CC)CCCC)OC(=O)OCCCN(CC)CC (centres unmarked) ... 91.7%
CCCCCCCCCCCCC(CCOC(=O)CCCCC(OCC(CC)CCCC)OCC(CC)CCCC)OC(=O)OCCCN(CC)CC (centres unmarked) ... 91.2%
CCCCC/C=C\C/C=C\CCCCCCCCC(CCC(=O)OC(COC(=O)CCCCCCC)COC(=O)CCCCCCC)OC(=O)OCCCN(CC)CC (centres unmarked) ... 86.9%
CCCCC/C=C\C/C=C\CCCCCCCC(=O)OCCC(CCCCCCCCCCCC)OC(=O)OCCCN(C)C (centres unmarked) ... 86.8%

Hey, can you go through the list below and give me % encapsulation siRNA FVII for every item?
1. CCCCC/C=C\C/C=C\CCCCCCCCC(CCC(=O)OC(COC(=O)CCCCCCC)COC(=O)CCCCCCC)OC(=O)OCCCN(C)C (centres unmarked)
2. CCCCC/C=C\C/C=C\CCCCCCCCC(CCOC(=O)CCCCCC(CCCCCC)CCCCCC)OC(=O)CCCN(C)C (centres unmarked)

74.8%
84.6%

Need % encapsulation siRNA FVII for each of these compounds.
1. CCCCCCCCC(CCCCCCCC)CC(CCCCOC(=O)CCCCCCC)OC(=O)OCCCN(C)C (centres unmarked)
2. CCCCCCCCCCCCC(CCOC(=O)CCCCCCC(COC(=O)CCCCCCC)COC(=O)CCCCCCC)OC(=O)OCCCN(C)C (centres unmarked)

86.7%
89.9%

###

Experiment: siRNA encapsulation in lipid nanoparticles (SYBR Gold)
Format: physicochemical
Details: Table 2; FVII siRNA in LNP with the cationic lipid
Metric: % encapsulation siRNA FVII (%)
Numbers only, in %.

CCCCCCCCCCCCC(CCOC(=O)CCC(OCC(CCC)CCC)OCC(CCC)CCC)OC(=O)OCCCN(C)CC (centres unmarked) [Example 14] ... 88.0

For every record below, what is its % encapsulation siRNA FVII?
1. CCCCCCCCCCCCC(CCOC(=O)CC(CCCCCCCC)CCCCCCCC)OC(=O)OCCCN(C)C (centres unmarked) [Example 24]
2. CCCCCCCCCCCCC(CCOC(=O)CCCCCCCC(CCCCC)CCCCC)OC(=O)OCCCN(C)C (centres unmarked) [Example 27]

[86.8, 86.6]

###

Provide the recorded Size for the entries that follow.
Experiment: Particle size and polydispersity by DLS of RSV-F replicon LNPs
Type: physicochemical
Conditions: RSV-F replicon LNP prepared for 1st IM
Numbers only, in nm.

Some solved entries appear below for comparison.
CCCCC/C=C\C/C=C\CCCCCCCC(=O)OCC(COC(=O)CCCCCCC/C=C\C/C=C\CCCCC)OC(=O)C(CCCCCCCCCCCC)OC(=O)OCCCN(C)C (centres unmarked) ... 139.4
CCCCC/C=C\C/C=C\CCCCCCCC(=O)OCC(COC(=O)CCCCCCC/C=C\C/C=C\CCCCC)COC(=O)CCC(CCCCCCCCCCCC)OC(=O)OCCCN(C)C (centres unmarked) ... 137.2
CCCCCCCCCCCCC(CCOC(=O)CCCCC(COC(=O)CCCCCCC)COC(=O)CCCCCCC)OC(=O)OCCCN(CC)CC (centres unmarked) ... 139.1
CCCCCCCCCCCCC(CCOC(=O)CCCCC(OCC(CC)CCCC)OCC(CC)CCCC)OC(=O)OCCCN(CC)CC (centres unmarked) ... 132.2

Would you mind giving Size for every compound in the list below?
1. CCCCCCCCCCCCC(CCOC(=O)CCCCC(OCC(CCC)CCC)OCC(CCC)CCC)OC(=O)OCCCN(C)C (centres unmarked)
2. CCCCC/C=C\C/C=C\CCCCCCCCC(CCCOC(=O)CCC(=O)OC(CCCCCCCC)CCCCCCCC)OC(=O)OCCCN(C)C (centres unmarked)
3. CCCCCCCCCCCCC(CCCOC(=O)CCCCC(COC(=O)CCCCCCC)COC(=O)CCCCCCC)OC(=O)C1(C)CCN(C)CC1 (centres unmarked)
4. CCCCCCCCCC(=O)OCCC(CC(CCCCCCCC)CCCCCCCC)OC(=O)OCCCN(C)C (centres unmarked)

[141.3, 139.4, 138.3, 133.7]
